experimental protocol: PAMPA permeability
Assay type: in vitro ADME
condition parameters: PAMPA, Hex; read-out: PAMPA Hex
Would you kindly list Papp for each of these molecules?
Field format: number, assumed ×10⁻⁶ cm/s, no unit text.

I'd like to know its Papp. The molecule in question is CCCc1nc(C)c2c(=O)[nH]c(-c3cc(S(=O)(=O)N(C)CC(=O)N(CC)CC)ccc3OCC)nn12 [Compound 8]
21.8

I'd like to know its Papp. The molecule in question is CCCc1nc(C)c2c(=O)[nH]c(-c3cc(S(=O)(=O)N(C)C4(C(=O)N(C)C)CC4)ccc3OCC)nn12 [Compound 16]
3.41

I'd like to know its Papp. The molecule in question is CCCc1nc(C)c2c(=O)[nH]c(-c3cc(S(=O)(=O)N4CCCC4C(=O)N(C)C)ccc3OCC)nn12 (stereo not shown) [Compound 5]
13.2

I'd like to know its Papp. The molecule in question is CCCc1nc(C)c2c(=O)[nH]c(-c3cc(S(=O)(=O)N(C)CC(=O)NC)ccc3OCC)nn12 [Compound 21]
0.24

I'd like to know its Papp. The molecule in question is CCCc1nc(C)c2c(=O)[nH]c(-c3cc(S(=O)(=O)N(C)CC(=O)N4CCN(C)CC4)ccc3OCC)nn12 [Compound 7]
0.18

I'd like to know its Papp. The molecule in question is CCCc1nc(C)c2c(=O)[nH]c(-c3cc(S(=O)(=O)N(CC)CC(=O)N(CC)CC)ccc3OCC)nn12 [Compound 10]
67

I'd like to know its Papp. The molecule in question is CCCc1nc(C)c2c(=O)[nH]c(-c3cc(S(=O)(=O)NC(C)(C)C(=O)N(C)C)ccc3OCC)nn12 [Compound 19]
0.17

----------
experimental protocol: PAMPA permeability
Assay type: in vitro ADME
condition parameters: PAMPA, Lec; read-out: PAMPA Lec
measured metric: Papp (×10⁻⁶ cm/s)
Field format: number, assumed ×10⁻⁶ cm/s, no unit text.

I'd like to know its Papp. The compound in question is CCCc1nc(C)c2c(=O)[nH]c(-c3cc(S(=O)(=O)N(C)CC(=O)N(C)CC(=O)N(C)C)ccc3OCC)nn12
0.056

I'd like to know its Papp. The compound in question is CCCc1nc(C)c2c(=O)[nH]c(-c3cc(S(=O)(=O)NC)ccc3OCC)nn12
0.00384

I'd like to know its Papp. The compound in question is CCCc1nc(C)c2c(=O)[nH]c(-c3cc(S(=O)(=O)N(C)CC(=O)N(C)C)ccc3OCC)nn12
0.128

----------
target entity: PDE-1
experimental protocol: Phosphodiesterase inhibition PDE-1
Would you kindly list pIC50 for each of these compounds?
Interpret pIC50 as the negative base-10 log of the concentration measured in mol/L.

I'd like to know its pIC50. The compound in question is CCCc1nc(C)c2c(=O)[nH]c(-c3cc(S(=O)(=O)N(C)C(C)(C)C(=O)N(C)C)ccc3OCC)nn12 [Compound 3]
8.00

I'd like to know its pIC50. The compound in question is CCCc1nc(C)c2c(=O)[nH]c(-c3cc(S(=O)(=O)NC)ccc3OCC)nn12 [Compound 20]
7.55

I'd like to know its pIC50. The compound in question is CCCc1nc(C)c2c(=O)[nH]c(-c3cc(S(=O)(=O)N(C)CC(=O)N(C)C)ccc3OCC)nn12 [Compound 1]
7.60

----------
Would you kindly list solubility for each of these molecules?
experimental protocol: Solubility
Format: physicochemical
condition parameters: pH 7.4, aqueous buffer, pH 7.4; read-out: Solubility pH 7.4

I'd like to know its solubility. The molecule in question is CCCc1nc(C)c2c(=O)[nH]c(-c3cc(S(=O)(=O)N(C)[C@H](C)C(=O)N(C)C)ccc3OCC)nn12
> 0.1 mg/mL

I'd like to know its solubility. The molecule in question is CCCc1nc(C)c2c(=O)[nH]c(-c3cc(S(=O)(=O)N(C)CC(=O)N4CCOCC4)ccc3OCC)nn12
> 0.1 mg/mL

I'd like to know its solubility. The molecule in question is CCCc1nc(C)c2c(=O)[nH]c(-c3cc(S(=O)(=O)N(C)CC(=O)N(C)CCN(C)C)ccc3OCC)nn12
> 0.1 mg/mL
